Values were extracted from patent US20260217813A1.

Quick reference: MFI of the listed items.
tgt: T1, IL-12 (Human IL12 (His Tag)), Sino Biological Cat. No. CT-050-H08H-20 (human, UniProt P29460 23-328; P29459 23-219)
T1 construct: Bought His-tagged p35/p40 heterodimer
T1 sequence (looked up) 1: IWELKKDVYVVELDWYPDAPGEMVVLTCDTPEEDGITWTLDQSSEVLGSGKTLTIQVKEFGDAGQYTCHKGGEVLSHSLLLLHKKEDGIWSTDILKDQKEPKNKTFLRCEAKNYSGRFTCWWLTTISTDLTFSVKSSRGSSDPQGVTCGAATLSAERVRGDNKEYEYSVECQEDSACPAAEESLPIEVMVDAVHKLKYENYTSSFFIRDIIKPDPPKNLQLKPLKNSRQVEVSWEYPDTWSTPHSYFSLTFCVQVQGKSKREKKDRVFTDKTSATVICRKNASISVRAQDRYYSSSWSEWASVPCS
T1 sequence (looked up) 2: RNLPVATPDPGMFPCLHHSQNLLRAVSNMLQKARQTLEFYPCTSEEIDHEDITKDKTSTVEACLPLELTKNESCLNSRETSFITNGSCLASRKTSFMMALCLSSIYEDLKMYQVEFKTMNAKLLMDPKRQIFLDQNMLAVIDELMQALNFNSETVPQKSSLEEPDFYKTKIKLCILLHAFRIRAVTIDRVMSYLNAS
protocol: FACS competition, IL-12-His 20 nM on 293T-IL-12RB1&IL-23R cells, antibody 0.12 µg/mL
Reply briefly: the number, and no unit.

Answered examples (2):
H5L11 (antibody, human IgG1, kappa, V domains shown, IgG1/kappa) VH: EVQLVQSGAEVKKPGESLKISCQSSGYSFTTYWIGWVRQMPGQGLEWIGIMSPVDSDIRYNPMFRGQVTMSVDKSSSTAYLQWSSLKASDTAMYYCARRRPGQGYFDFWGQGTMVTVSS VL: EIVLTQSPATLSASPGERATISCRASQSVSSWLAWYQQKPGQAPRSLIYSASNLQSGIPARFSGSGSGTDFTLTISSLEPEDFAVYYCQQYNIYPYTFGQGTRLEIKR : 145
H5L9 (antibody, human IgG1, kappa, V domains shown, Humanized anti-human IL-12/IL-23 p40 antibody; IgG1 (P01857) / kappa (P01834) constant regions) VH: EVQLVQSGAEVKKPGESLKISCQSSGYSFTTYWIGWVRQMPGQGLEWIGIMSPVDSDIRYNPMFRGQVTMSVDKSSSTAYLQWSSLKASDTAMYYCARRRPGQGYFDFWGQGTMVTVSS VL: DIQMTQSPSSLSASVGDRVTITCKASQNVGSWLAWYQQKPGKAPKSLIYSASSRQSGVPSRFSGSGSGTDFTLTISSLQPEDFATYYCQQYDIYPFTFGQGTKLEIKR : 160

Let us examine a further case.
Data request: Please give the measured MFI for this binder: H5L10 (antibody, human IgG1, kappa, V domains shown, IgG1/kappa) VH: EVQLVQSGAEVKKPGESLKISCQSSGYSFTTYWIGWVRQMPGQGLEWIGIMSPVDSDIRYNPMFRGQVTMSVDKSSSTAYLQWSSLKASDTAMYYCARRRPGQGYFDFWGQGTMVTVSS VL: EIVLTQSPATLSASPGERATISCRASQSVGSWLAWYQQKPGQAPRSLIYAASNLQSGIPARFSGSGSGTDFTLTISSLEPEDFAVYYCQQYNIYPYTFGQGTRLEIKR
Data returned: 151
